For each record, write down the corresponding % Cell Death.
assay: MMV: MTT Cytotoxicity Assay Day 7 pi of Assay #10 (NO washout), U87-CD4-CCR5 cells, % cell death @ 5mM compound; assay type: toxicity, cell-based; conditions: human, u87-cd4-ccr5, 5000 µM
Answers are plain numbers.

See these solved cases before continuing.
COMPOUND | % Cell Death
COc1ccc(N2CCN(C(CNC(=O)CC(C)(C)C)c3ccc4c(c3)OCO4)CC2)cc1 (stereo not given) | 44
O=C(NCC(c1ccsc1)N1CCCCCC1)c1ccc(C(F)(F)F)cc1 (stereo not given) | 19
Cc1c(C)n(CC(O)CNC2CCCCC2C)c2ccccc12 (stereo not given) | -14
O=C(Nc1ccc(Br)cc1)Nc1cccc(Cl)c1 | 44
Cc1ccc(S(=O)(=O)c2c(COC(=O)c3cccc(C)c3)c(-c3ccccc3)nn2C)cc1 | 16

Please state % Cell Death for every compound in the list that follows.
1. COc1ccc(C2N(C)c3ccccc3N2C)cc1
2. CCOc1ccc2nc(C)cc(Nc3ccc(Br)cc3)c2c1
3. O=C(Nc1cccc(C2=NCCN2)c1)Nc1cccc(C2=NCCN2)c1
4. Br.Cc1ccc(C)c(-c2csc(Nc3ccc(C)c(C)c3)n2)c1
5. O=C(Cc1ccccc1)NC(c1ccc(Cl)cc1)c1c(O)ccc2ccccc12 (stereo not given)
6. O=C(Nc1ccc(CN2CCOCC2)cc1)c1ccc(-c2cc(Cl)ccc2Cl)o1
7. COc1cccc(C(=O)NC(c2ccc(C)cc2)c2cc(Cl)c3cccnc3c2O)c1 (stereo not given)

1: 3; 2: 108; 3: 63; 4: 48; 5: 2; 6: 41; 7: 26

Give me % Cell Death for each of these compounds, listed below.
1. COc1ccc2nc(N)nc(C)c2c1
2. Cc1ccc(CN2CCC(C(=O)Nc3ccc(-c4cc5ccccc5[nH]4)cc3)CC2)o1

17
65

Could you tell me which % Cell Death is on file for `Cc1cccc(-n2ncc3c(O)nc(-n4nc(C)cc4NC(=O)c4cc5ccccc5o4)nc32)c1` ?
23

====

assay: MMV: MTT Cytotoxicity Assay Day 7 pi of Assay #10 (NO washout), U87-CD4-CCR5 cells, % cell death @ 5mM compound; format: toxicity, cell-based; details: human, u87-cd4-ccr5, 5000 µM
Entry class follows % Cell Death: c1: < 10; c2: ≥ 10 and < 30; c3: ≥ 30

Reference set (3 entries):
COMPOUND | LABEL CLASS
CCOC(=O)c1cnc2ccc(OC)cc2c1Nc1ccc(N2CCN(C)CC2)cc1 | c2
CCN1CCCC1CNc1[nH]cnc2c3cc(Cl)ccc3nc1-2 (stereo not drawn) | c3
c1ccc(-c2ccc(-c3nc4ccccc4[nH]3)cc2)cc1 | c2

Field: class (% Cell Death) — entry: `Fc1ccc2[nH]c3c(NCCCN4CCOCC4)ncnc3c2c1`
c3

Textbook exercise: identify the category of the compound given here, CC(C)(C)c1ccc(C2CC3=Nc4ccccc4N(C(=O)c4ccccc4Cl)C(c4ccc(F)cc4)C3=C(O)C2)cc1 (stereo not drawn) , according to its measured value.
c2

Which % Cell Death band matches `CCN(CC)c1ccc(NC(=O)c2cccs2)cc1` ?
c3

====

test: MMV: MTT Cytotoxicity Assay Day 3 pi, U87-CD4-CCR5 cells, % cell death @ 5mM compound; assay type: toxicity, cell-based; conditions: human, u87-cd4-ccr5, 5000 µM
For each record, write down the corresponding % Cell Death.
Answers are plain numbers.

# example entries with known answers
COMPOUND | % Cell Death
Cc1ccccc1OCCSc1nc2ccc(NC(=O)c3cccs3)cc2s1 | 110
COc1cc(-c2nc(-c3ccc(Sc4ccccc4)cc3)c(-c3ccccc3)[nH]2)cc(OC)c1O | 18
CCC(=O)Nc1nnc(Cc2ccc(OC)c(OC)c2)s1 | 17
O=C(O)C1Cc2c([nH]c3ccccc23)C(c2ccc(Cl)cc2Cl)N1 (stereo not given) | 10

Fill in: % Cell Death of `CCCc1c(CC)c(=N)c2ccccc2n1C` is ___
33

====

assay: MMV: MTT Cytotoxicity Assay Day 7 pi of Assay #11 (NO washout), U87-CD4-CXCR4 cells, % cell death @ 5mM compound; assay type: toxicity, cell-based; conditions: human, u87-cd4-cxcr4, 5000 µM
VALUE TYPE: % Cell Death
Answers are plain numbers.

As a guide, the following entries are already answered.
MOLECULE | % Cell Death
Oc1c(C(Nc2ccccn2)c2cccc(Oc3ccccc3)c2)ccc2cccnc12 (stereo unspecified) | 106
COc1ccc(C2NCCc3c2[nH]c2ccccc32)cc1CN1CCN(c2ccc(F)cc2)CC1.Cl (stereo unspecified) | -62
CN1C=C(c2ccc3ccccc3n2)C(c2c[nH]c3ccccc23)c2ccccc21 (stereo unspecified) | 0
c1ccc(Cn2c(N=Nc3c(Nc4ccccc4)ccc4ccccc34)nc3ccccc32)cc1 | 101
O=C(Nc1nc(-c2ccccn2)cs1)c1ccccc1Br | 85

For each of the items listed, what is its % Cell Death?
1. c1ccc(CNc2nc(Nc3ccccc3)nc3ccccc23)cc1
2. O=C(Nc1ccc(Cl)c(Cl)c1)Nc1ccc(Cl)c(Cl)c1
3. CCn1c(SCC(=O)Nc2cc(C(F)(F)F)ccc2Cl)nc2ccccc2c1=O
4. CCOC(=O)c1cnc2ccc(CC)cc2c1O

[0, 116, 17, 42]

I need % Cell Death for every entry listed below, if you could help.
1. COc1ccc(OC)c(C2C3=C(CC(C)(C)CC3=O)N(c3ccc(Cl)c(Cl)c3)C3=C2C(=O)CC(C)(C)C3)c1
2. CC(=O)Nc1nnc(SCc2c(C)cc(C(C)(C)C)cc2C)s1
3. CN(C)c1ccc(N=Cc2ccc(N3CCOCC3)cc2)cc1
4. CC1(c2ccccc2)Nc2ccccc2-c2nc3ccccc3n21 (stereo unspecified)
5. CC(C)(C)CC(C)(C)NCC(O)COc1ccc(Cl)cc1Cl (stereo unspecified)

[3, 6, 109, -43, 8]

Hey, can you go through the list below and give me % Cell Death for every item?
1. CCCOCc1cc(CN2CCN(c3cccc(Cl)c3)CC2)c(O)c2ncccc12
2. Cc1ccc2cc3c(N)c4c(C)ccc(C)c4nc3nc2c1
3. COc1ccc(CNC(=O)c2cc3c(=O)n4ccccc4nc3n(CCc3ccccc3)c2=N)cc1
4. CCn1c(CN2CCN(Cc3ccccc3)CC2)nc2cc(NC(=O)c3cccs3)ccc21
5. COc1ccc(C)c2sc(N(Cc3cccnc3)C(=O)c3ccc(C#N)cc3)nc12
6. CC(C)=CCN1CCC(C(=O)Nc2ccc(-c3nc4ccccc4[nH]3)cc2)CC1
7. O=C(Nc1ccc(-c2nc3cc(NC(=O)c4ccc(Cl)cc4)ccc3[nH]2)cc1)c1ccc(Cl)cc1

1: -57; 2: 31; 3: 49; 4: -27; 5: -39; 6: -26; 7: -10

====

experiment: MMV: MTT Cytotoxicity Assay Day 3 pi, U87-CD4-CXCR4 cells, % cell death @ 5mM compound; format: toxicity, cell-based; details: human, u87-cd4-cxcr4, 5000 µM
Quick rule: % Cell Death of at least 30 means True, below that means False.

MOLECULE | LABEL CLASS
CN1CCN(c2nc(Nc3ccc(O)cc3)nc3ccccc23)CC1.Cl | True
COc1cc(OC)c(N(C)C(=O)c2cc3c(s2)-c2ccccc2S(=O)(=O)C3)cc1Cl | True
O=C(Nc1ccc(CN2CCOCC2)cc1)c1ccc(-c2ccc(Br)cc2)o1 | False
COc1ccc(Br)cc1C1Nc2ccc3ccccc3c2C2=C1C(=O)CC(c1ccccc1)C2 (stereo unspecified) | False
CCCCCCc1cc2cc(-c3csc(C=Cc4ccccc4)n3)c(=O)oc2cc1O | True

Now look at this one.
Tell me whether % Cell Death is at least 30 here: `CCOC(=O)c1c(C)n(-c2ccc(Cl)cc2)c2ccc(OC(=O)C=Cc3ccccc3)cc12`
False

====

test: MMV: MTT Cytotoxicity Assay Day 7 pi of Assay #6 (compound washed out Day 1 pi), U87-CD4-CCR5 cells, % cell death @ 5mM compound; format: toxicity, cell-based; conditions: human, u87-cd4-ccr5, 5000 µM
Could you please report measured % Cell Death for the items listed next?
One number for each entry.

Below are worked cases with known answers.
MOL SMILES | % Cell Death
Cc1cc(NC(=O)c2ccc(-c3ccccc3)cc2)no1 | -24
FC(F)(F)c1ccc(Nc2nnnc3ccccc23)cc1 | 44

# ---- query compound ----
Sample `Cc1cc(NCCN2CCCCC2)c2ccc3ccccc3c2n1` — what was its % Cell Death?
30

====

experiment: MMV: MTT Cytotoxicity Assay Day 7 pi of Assay #11 (NO washout), U87-CD4-CXCR4 cells, % cell death @ 5mM compound; type: toxicity, cell-based; details: human, u87-cd4-cxcr4, 5000 µM
For each record, write down the corresponding % Cell Death.

Below are 3 molecules. Give each one its % Cell Death.
1. CCCCc1ccc(NS(=O)(=O)c2cc3c4c(c2)CCN4C(=O)CC3)cc1
2. CN1c2ccccc2N(C)C1c1ccc2c(c1)OCO2
3. COc1ccc(CCn2c(=N)c(C(=O)NCc3cccnc3)cc3c(=O)n4cccc(C)c4nc32)cc1

1. 93
2. -2
3. 8

# batch size: 7; output % Cell Death per entry
1. COc1cc(C(=O)Nc2nc3c(cc4c5c(cccc53)CC4)s2)cc(OC)c1OC
2. Cc1cc(NC(=O)c2cccc(C(F)(F)F)c2)n(-c2nc(-c3ccc4c(c3)OCO4)cs2)n1
3. COCCN(C(=O)Cc1cccs1)C(C(=O)NCc1ccc(OC)cc1)c1ccc(C(C)C)cc1 (stereo not given)
4. OC(CNCC1CCCO1)Cn1c2ccc(Cl)cc2c2cc(Cl)ccc21 (stereo not given)
5. Br.CCN(CC)S(=O)(=O)c1ccc(-c2csc(Nc3ccc(C)c(C)c3)n2)cc1
6. COc1cc(SC)ccc1C(=O)N1CCCC(C)C1 (stereo not given)
7. COc1ccccc1NC1=C(N2CCCCC2)C(=O)c2ccccc2C1=O

[110, -57, 68, -7, 11, -41, -50]
